Cited source for all entries: a protein production outcome set (Wang et al. 2014)

ASSAY_NAME: label from the status in PepcDB records
PARAMETER: protein production

In the examples that follow, each entry is paired with its recorded protein production.
| RESIDUE_SEQUENCE | VALUE |
| --- | --- |
| MKPKLILMSHGRMAEETLASTQMIVGELADAAIVSMTAEDGLSGTQAKLAAILKEAGNVPTLVLADLKGGTPCNVAMMAMGTYPQLRVVAGLNLAMAIEAAVSPVENVDELAAYLTQIGQSAVTTIDLPELTDEEEFEE | not failed |
| DARKGNASAPVVAVEFFDYQCGYCKGALPELAAALSGRNDVAVVMKEFPILGSTSEAAARLALAVRAEHGDEAYLGFHNALLSHKGGLNEAALSILAGAAGYDYPALVARGRQDDITSIIDGNRRLAQALSISGTPAFVFRDGEVVPGMMAADRLTAAFDRLSASTAAAQ | failed |
| MLARVLILLMFSLCAWPARAHALTIYTEEWPPITFQRNGIADGMAVEVVREIQGRIHDNSPIEVVPWARGYKDLLTTPGVMLFTVGRSEAREKQMTLLGPIAVSQTVLLARKGEAAKLLALGAGIYQRPVGAYRGSIFADAASAAGFVEVDLAPTPQLTAQKMLMGRYDMWVEGGFVVASVLKDIHQPANAVEVVRVLESLELYLAFSRGTSAEEVKRWQDGFAAIKKDGTFKRIYNKWLPRDAPPMEMKLLGVPPGTAR | failed |
| MSPGPQSGGQERGSMERKMVELEDTGLTFATEVDLERLQALAAEWLQVIGEDPGREGLLKTPERVAKAWAFLTRGYRQRLEEVVGGAVFPAEGSEMVVVKGVEFYSMCEHHLLPFFGKVHIGYIPDGKILGLSKFARIVDMFARRLQVQERLAVQIAEAIQEVLEPQGVGVVVEGVHLCMMMRGVEKQHSRTVTSAMLGVFRENQKTREEFLSHLRDGTA | not failed |
| MCLCQLSRRKKRPDDSDTQSAPGAVQGTGADYSGAVTASAASTVTHPTVTRHVTASGARIYTIGIRAFEHLGVNVFLVVVGDPQQPSYTALIDAGSSFDFSQQGLLDGLKRVREEYGEAWSWETLSRLVITHPHPDHVGGLPFVRTLTAAPVAAHALAAAVIEEPGRRAEAFKLGADAMLARLGVPEGEYAARLRRRAGNLMSPSGVKVETALQDGDTLDGLFTVLHTPGHDGAQICLRLDEVLLSADHLLPHNSPPLMPGWMLPGSGLGPYLAALDHIETLEGVDLALGSHDEPMPDWRGRVDFLRRRYDDKLRGVLGAASEPQTIYALTCAVNPRLRAAQALLLLDQTAALVEELVVRGELHETREQAADGERWTYQRA | failed |

Sample `MSIRLTNISKKFGQFQALSPLNLDIQEGEMIGLLGPSGSGKTTLLRIIAGLEGADSGHIHFGNRDVTQVHVRDRRVGFVFQNYALFRHMTVADNVAFGLEVIPKKQRPSAAEIQKRVSHLLEMVQLGHLAQRYPEQLSGGQKQRIALARALATQPEVLLLDEPFGALDAKVRKELRRWLRSLHDELKFTSVFVTHDQDEALELSDRVVVMSNGNIEQVNTPIELYAQPNSRFVFDFLGNVNRFEANWQQNRWTNGDAFIVPPEQTPLQQNGALYVRSHELALADKPNSQAHIPFTIVAITPIGAEVRVELAPIGWQSEELWEAKFTHHHLQELGLQKGSVVYATPRTGYFFGKQGDGSPIRQSWPFLPPGSLAFDI` ; protein production observed: failed

---

ASSAY_NAME: label from the status in PepcDB records

| RESIDUE_SEQUENCE | protein production |
| --- | --- |
| DGRCISLLKILMTNFCIFDCAYCVNRVSSRVERARFSVEEVVTLTVEFYRRNYIEGLFLSSGIIRSPDDTMADMVRIAKTLREREHFRGYIHLKTIPDAAPELIEQAGLYADRLSINVELPTEAGLDRFAPEKSATGIRKAMAEVRLKREASREPSFSGRRPSRFA | failed |
| MAGIKVFGHPASTSTRRVLIALHEKNLDFELVHVELKDGEHKKEPFLSRNPFGQVPAFEDGDLKLFESRAITQYIAHRYENQGTNLLPADSKNIAQYAIMSIGIQVEAHQFDPVASKLAWEQVFKFNYGLNTDQAVVAEEEAKLAKVLDVYEARLKEFKYLAGETFTLTDLHHIPVIQYLLGTPTKKLFTERPRVNEWVAEITKRPASEKVL | failed |
| MQLKSRVFIVTGASSGLGAAVTRAGSGGRDSARAGPEAASGGRACRSSARRCASEMPTRMRPTPPPLAFAKQEFGHVHGLVNCAGTAPGEDSRQERPARTGQFRPHGRRQPDRHSTYGLPPRSCRRESRTPTASGVIVNTASIAAFDGQIGQAAYAAEGRRRRPDASGRARARAFRNSRRPLRPASSIRRWPACLRMFRMRAASVPFPPRLGRAEEYAALVKHIREYDAQWRGHPPRRGFAHGAPV | not failed |
| ASNSQLNAMAHQIQEMFPQVPYHLVLQDLQLTRSVEITTDNILEGRIQVPF | not failed |

---

ASSAY_NAME: label from the status in PepcDB records
PARAMETER: protein production

In the examples that follow, each entry is paired with its recorded protein production.
| RESIDUE_SEQUENCE | PARAMETER | VALUE |
| --- | --- | --- |
| MIEVLSVITSATVQDLGRWGYQRYGVPVSGVMDEVSARIANYLVGNPDNTPLIEFTAGGISIKFHTSAVFAVTGDATLYLNDTQLEPWESYWAKRGDVLTVRLSKGMYGYIAFSGGIECRKILGSCSTYLRAKFGGLLKPGDKLKLGYSLLTGKAGKRLPEELRPRFDKTVRVILGPNIEHFTPEGMRTFLTSEYTVTPESDRMGYRLEGPRIEHSEKGADIITEPIPRGAIQVPANGKPIIMLADAQTTGGYAKIATVIRVDIPMVVQTRPGEKLRFKAVSVNEAVQELRKRERI | protein production | not failed |
| MIYWGMGMLVIAWLADGGISRLSDLIKEPLALGVLLFCGVWVLGLLWSDSAVIFQGKWRKYFILLTFIPLFSLLSRERLPWVTGALLCSYLGMVILGSYQWAMQEMQGISLLGMSYLHYSAALGIGVILAVFLGWETLSREKRWLSVLSWLIAILLLFLQFNQSARGILLATLMALLLMIVLRYRAEWRMLTGGLTAIMAMVILFATSSDIFHDRLQQAGTDLRSFQQGDYQTSVGYRLAMWDVGLHGIAEHPLLGHGSGMAKKYFDDSIITYKQGIYRNLPEFQETAHFHNELIEIGMHLGLLGILAFVFLLWCWFQIFRQNRMALLGSAIVCFICISGLTDTFLLYSGTPPFLLTVTAIAVCWRKYREDPDRIGQKYTSGERNGNQNPQMFLMSA | protein production | failed |
| MTQVRETVSFKAGDVILYPGVPGPRDRAYRVLEGLVRLEAVDEEGNALTLRLVRPGGFFGEEALFGQERIYFAEAATDVRLEPLPENPDPELLKDLAQHLSQGLAEAYRRIERLATQRLKNRMAAALLELSETPLAHEEEGKVVLKATHDELAAAVGSVRETVTKVIGELAREGYIRSGYGKIQLLDLKGLKELAESRGQGR | protein production | not failed |
| MIESMIIAGGMLVALLYMTACSDKLDVQQMYEFDLATLPVQTTIVKGEEAEIRCQLVRSGEYQDTKYFIRYFQPTGKGELRMENGTVLLPNDLYLLPEETFRLYYRSFGTDQQKIDIYILDSFGQVVQKSFAFNNLEHHHHHH | protein production | failed |

Sample `MCEKTAGDESGRRISRRAGNGEAGRLRSLSRLFDHFATAVTRWTGSPIAFSGACAAILAWASTGPLFGYSEVWQLVVNTGTTIVTFLMVFLIQQAQNKDSRALHVKLDELLVAVNGADVALAEAENLDDDRLLELADAYAARARRLVEHSTQRQRRDRGAEPEVGAARTRLARRPPGARARRHARLCWWQKQYARQRQGGDT` ; protein production observed: failed

Sample `MSETVTQVNETTQQIVRSRTCGLKDFYIALVQSNTATAYTAGTPVKLARAIKAKIDEKWTSEKIYSDDNTEEVITSYEGTDVELEINALAPQDRVILFGQLYEKGFLRKSSDDRAPEVAVGWRERKLNGKYEFKWLYVGKFAEGISEEASTLEHHHHHH` ; protein production observed: not failed

Sample `MTGMRKTLKATLAEARAQVEAALKEEGFGILTEIDVAATLKAKLGLEKPPYLILGACNPNLAARALEALPEIGLLLPCNVVLREAEEGVEVLIQDPKEMFRVLPEATQRALAPVAEEARTRLSRALSRL` ; protein production observed: not failed

---

ASSAY_NAME: label from the status in PepcDB records
PARAMETER: protein production

In the examples that follow, each entry is paired with its recorded protein production.
| RESIDUE_SEQUENCE | protein production |
| --- | --- |
| MTERGLLIVLSGPSGVGKGTVREAVFKDPETSFDYSISMTTRLPREGEQDGVDYYFRSREVFEQAIKDGKMLEYAEYVGNYYGTPLEYVEEKLAAGVDIFLEIEVQGAMQVRKAMPEGIFIFLTPPDLSELKNRIIGRGTESMEVVEERMETAKKEIEMMASYDYAVVNDVVANAVQKIKGIVETEHLKTERVIHRYKKMLEGLQ | not failed |
| MKENEYRFIMRIFVLVSFTAVLMIAVPFLDTIAFACAFAYMTEPFFNAVRRYAGRTLGAILSILMVTVPALSLVVLILSDVVEFLNTLNVPSLVDTTIQFVNYLGLQNIAQEDLNRILSELWTFLKPTINKMAEQIYGIPLLFIKGLITVFLTYYFLKDGHRFKDAIMPHVPEVYHVQTELFIRKLNEAYKNLFVVNALTSFTVGLISIAGFWAIGLPNPVTLGALSGILTLLPIVGGWTIYMPLSLYYIAVGMYTKAILLFGFGVIFLSLAPDFAIRPRLVNHESDIHPAIALVAFLMGPLALGVTGFALGPLIMGTFDAIFRVKNGKDSIINLK | failed |
| MILYVFLFFVGLLLLYLGAEGLIQGASSIALQYGIRPVILGLTVVALGTSMPEYLVNVFALISGESPLAIGNIIGSNISNVALILGACAVVLPLAVTPEVLRREYPVMLGVMVLFYLCALDGVIGARDGVLMVVLLSGLAAYVFYDAHRTTRGTVLESMEGELDAADPDLSTLAKAVYVIGGMGGLTLGAHLMVDNALAISDVLNIDHVVIGLTVVAIGTSLPELAASMVGTLKQEVDMTVGNVIGSNLLNVLFVVGTLAIAEPITVDPETIRLHFPVMLGFCALLVPLTWWDQKITRVEGAFMVIAFLGFMVFLYV | failed |
| MIGQTDQNIVITYSANIQQVKILYVDEKGSEVSSMLLKGNTDQTVNVSYSVPDHWIAISGQDSPLQYTFKAKDNKNIVIRIGHKLEDQENDIHKIIRNVNIVNPDGSVAKVSQTAIFTRVHQRDEVTGEEVYGNWDKISQDFNAIDIPKIFGYTATSSVGKMTVTPDSQSENITITYTADIQNNKIVIIDDESHGSQINTVGFTGKTGKSIAWQVTIPENYDLAAGGKISGNYTFNAVNQIPIEVHVRHKHVQDDESKSVTRTIVTNLPGLDKSEIVQTVTFSRIIDKDLVDGN | failed |
| TATLILDDGLAIRYANPAAELLFSQSAKRIVEQSLSQLIQHASLDLALLTQPLQSGQSITDSDVTFVVDGRPLMLEVTVSPITWQRQLMLLVEMRK | not failed |

Attention now turns to another entry.
Sample `MADLPSISLITATYNAAQHLPGLIESVRQQSDRAFEWIVIDGASEDGTLDLIRGAQDVITDYVSEPDFGIFHALNKGIQRATGDYYLVVGADDRLDPLAIANYKQAAASSQADLISAYIYSEKKAIIKPTGGAIWHHGVQAFITTQSVGTLIKRNLHEHYGYYSHYYPTAADALFILKVQQGGGKITTAEFIAGQYNTKGFSYRYKANLLCELFLIQKEFFPKSIQLLLLIYRLIKNYRYLLEHHHHHH` ; protein production observed: failed
